Value source: PubChem BioAssay (NCI)

Each item that follows carries a reported TGI.
tested on: NCI-H522 lung; assay: NCI tumour cell line growth inhibition, 48 h

Return TGI (reported value) for this compound: Cc1ccc2c(c1)-c1c3c(nn1C)-c1ccccc1SC3O2 (stereo not given)
> 100 µM

---

# reported GI50; entries follow
test system: UACC-257 melanoma; assay: NCI tumour cell line growth inhibition, 48 h

Example cases with answers are listed next.
Cc1ccc(/C=N/NC(=O)c2ccccc2Oc2ccccc2)o1 ... 36500 nM
CCOc1cc(-c2nncn2C)ccc1Nc1ncc2cc(C)nc(NCC(C)(C)C)c2n1 ... > 100000 nM
CCN1CCN(c2nc(C)cc(NCc3cc(Nc4ccnc5cc(Cl)ccc45)ccc3F)n2)CC1 ... 1890 nM
NC(=O)c1c(NC(=O)c2cccs2)sc2c1CCC(=O)C2 ... 2730 nM
COc1cccc2c1C(=O)c1c(O)c3c(c(O)c1C2=O)C[C@@](O)(/C(CO)=N/NC(=O)CCCCCN1C(=O)C=CC1=O)C[C@@H]3O[C@H]1C[C@H](N)[C@H](O)[C@H](C)O1 ... 1060 nM
O=C(Oc1ccccc1)N(c1ccccc1)c1ccccc1 ... 26400 nM
COc1cc(-c2nn(-c3ccc(NC(=O)Nc4cc(C(F)(F)F)cc(C(F)(F)F)c4)cc3)cc2-c2ccncc2)ccc1Cl ... 2300 nM
C=C1C(=O)O[C@H]2[C@H]1CC/C(COC(=O)c1cccnc1N)=C\CC[C@@]1(C)O[C@@H]21 ... 2320 nM
Cc1nc2sc(C(=O)Nc3cccc(Br)c3C)c(N)c2cc1C(O)c1ccccc1 (stereo not drawn) ... 1460 nM
COC(=O)C1C(C(=O)O)C2(c3ccccc3)C(=O)C1(c1ccccc1)C(c1ccccc1)=C2c1ccccc1 (stereo not drawn) ... 19600 nM

For the compound O=S(=O)(NC1=NCCN1C(=S)SN1CCn2c1nsc2=S)c1ccc(Oc2ccccc2)cc1 , report GI50.
> 100000 nM

Name the recorded GI50 of the compound listed here: Cn1ncc(C#N)c1-c1ccc2c(c1)CN([C@H](CN)Cc1cccc(F)c1)C2=O
5990 nM

Fill in GI50 for record CC12OC(CC(O)C1O)n1c3ccccc3c3c4c(c5c6ccccc6n2c5c31)C(=O)N(CCN1CCOCC1)C4=O (stereo not drawn)
1970 nM
